# studySystem: full length human TREX1 (Homo sapiens (Human), UniProt Q9NSU2)
# Sequence (Q9NSU2 whole entry): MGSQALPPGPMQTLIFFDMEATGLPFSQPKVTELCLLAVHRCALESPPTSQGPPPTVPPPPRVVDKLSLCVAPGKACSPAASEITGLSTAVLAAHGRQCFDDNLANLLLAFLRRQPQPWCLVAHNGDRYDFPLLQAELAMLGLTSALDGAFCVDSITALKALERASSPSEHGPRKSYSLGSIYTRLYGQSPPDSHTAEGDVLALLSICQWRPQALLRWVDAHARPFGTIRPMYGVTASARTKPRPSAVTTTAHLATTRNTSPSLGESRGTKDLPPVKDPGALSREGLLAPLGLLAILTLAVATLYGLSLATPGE
# assayDetails: TREX1 Biochemical Assay (fluorescence assay measuring degradation of dsDNA substrate)
# appliedConditions: 150 pM TREX1, 60 nM dsDNA substrate, 25 minutes at room temperature
Record form. Attribute: IC50. Fill in for each entry.

Ask | Write IC50 of "Cn1c(-c2cccc(Br)c2)nc(C(=O)Nc2cnoc2)c(O)c1=O" ; system used: full length human TREX1 (Homo sapiens (Human), UniProt Q9NSU2)
Reply | < 100 nM

Ask | Write IC50 of "C[C@@H]1CC[C@H](c2nc(C(=O)Nc3cnoc3)c(O)c(=O)n2C)CN1C(=O)c1ccc(Cl)c(Cl)c1" ; system used: full length human TREX1 (Homo sapiens (Human), UniProt Q9NSU2)
Reply | 1000 to 10000 nM

Ask | Write IC50 of "Cn1c(N2CCN(c3ccccn3)C[C@@H]2c2ccccc2Cl)nc(C(=O)Nc2cnoc2)c(O)c1=O" ; system used: full length human TREX1 (Homo sapiens (Human), UniProt Q9NSU2)
Reply | < 100 nM

Ask | Write IC50 of "Cn1c([C@H]2CCCCN2CCO)nc(C(=O)Nc2cnoc2)c(O)c1=O" ; system used: full length human TREX1 (Homo sapiens (Human), UniProt Q9NSU2)
Reply | 1000 to 10000 nM
